Biological target: SIRT1 (Homo sapiens, UniProt Q96EB6)
Sequence (Q96EB6 whole entry): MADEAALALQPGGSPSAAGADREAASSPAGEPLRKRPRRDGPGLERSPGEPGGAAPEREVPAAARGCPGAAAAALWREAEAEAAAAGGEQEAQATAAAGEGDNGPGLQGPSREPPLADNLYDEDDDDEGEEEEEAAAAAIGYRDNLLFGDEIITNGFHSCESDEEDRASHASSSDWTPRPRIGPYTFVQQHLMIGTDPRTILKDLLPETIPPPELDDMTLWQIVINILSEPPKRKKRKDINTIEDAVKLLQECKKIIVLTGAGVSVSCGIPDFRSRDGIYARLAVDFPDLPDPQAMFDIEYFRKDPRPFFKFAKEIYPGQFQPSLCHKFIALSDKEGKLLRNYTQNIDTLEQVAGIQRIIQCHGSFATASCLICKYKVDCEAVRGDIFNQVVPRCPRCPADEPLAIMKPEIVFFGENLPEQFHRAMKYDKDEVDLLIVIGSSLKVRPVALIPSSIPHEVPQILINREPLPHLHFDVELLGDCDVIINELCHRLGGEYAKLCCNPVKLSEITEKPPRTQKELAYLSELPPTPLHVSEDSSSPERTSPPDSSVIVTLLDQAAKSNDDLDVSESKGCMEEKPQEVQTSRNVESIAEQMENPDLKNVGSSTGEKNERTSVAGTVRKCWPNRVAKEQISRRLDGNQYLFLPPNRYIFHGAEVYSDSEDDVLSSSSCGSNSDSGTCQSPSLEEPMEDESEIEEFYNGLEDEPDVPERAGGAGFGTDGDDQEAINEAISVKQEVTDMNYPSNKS
Assay: SIRT1 mass spectrometry (MS) based deacetylation assay
Assay type: biochemical
Details: SIRT1 activation, mass spectrometry assay; read-out: ED50 MS ASSAY
Below, each entry is listed alongside its reported EC50.

Recorded EC50, per entry:
COMPOUND	TESTED_ON	EC50
COc1cc(C(=O)Nc2ccccc2-c2nc3ccccn3c2CN(C)C)cc(OC)c1OC [Compound 351]	SIRT1 (Homo sapiens, UniProt Q96EB6)	5 to 50 µM
COc1ccc(C(=O)Nc2cccc(-c3nc4ncccc4o3)c2)cc1OC [Compound 52]	SIRT1 (Homo sapiens, UniProt Q96EB6)	5 to 50 µM
COc1ccc(C(=O)Nc2ccc(-c3nc4ncccc4o3)cc2)cc1C(F)(F)F [Compound 22]	SIRT1 (Homo sapiens, UniProt Q96EB6)	> 150 µM

With those in mind, consider the next compound.
Query: Look up EC50 for this compound: COc1ccc(C(=O)Nc2ccccc2-c2cn3c(CN4CCOCC4)csc3n2)cc1OC [Compound 209]
Result: 5 to 50 µM
